# method description: Drug amorphous solubility
# Format: physicochemical
# condition info: aqueous buffer; miconazole, dissolution medium pH 6.8
measurement label: solubility

Recorded solubility of Clc1ccc(COC(Cn2ccnc2)c2ccc(Cl)cc2Cl)c(Cl)c1 (stereo not shown) [miconazole] , please.
~5 µg/mL
